// data source = patent US7202069B2

In this section, each of the compounds is paired with its reported Relative activity.
test system: (R)-2-octanol dehydrogenase; assay: Activation of (R)-2-octanol dehydrogenase by reagents; assay type: biochemical, Pichia finlandica; settings: reagent 1 mM; activity without reagents = 100
Just the number plus its unit, please.

Fill in: (R)-2-octanol dehydrogenase Relative activity for "O=S(=O)([O-])[O-].[Mg+2]" = 125%

Fill in: (R)-2-octanol dehydrogenase Relative activity for "[Cl-].[Cl-].[Zn+2]" = 105%

Fill in: (R)-2-octanol dehydrogenase Relative activity for "O.O.O.O.O.O.O.O=S(=O)([O-])[O-].[Zn+2]" = 110%

Fill in: (R)-2-octanol dehydrogenase Relative activity for [Cl-].[Cl-].[Mg+2] [MgCl2Ñ6H2O, magnesium chloride] = 122%

---

test system: (R)-2-octanol dehydrogenase; assay: Oxidation activity of (R)-2-octanol dehydrogenase on various alcohols, NAD+ as coenzyme; format: biochemical, Candida utilis; conditions: oxidation activity of (R)-2-octanol taken as 100; NAD+ as coenzyme
In this section, each of the molecules is paired with its reported relative activity, oxidation reaction.
API doc: respond with a numeric literal and nothing else, no unit.

# example entries with known answers
Molecule	Target entity	relative activity, oxidation reaction
CCCCCC[C@@H](C)O [(R)-2-octanol]	(R)-2-octanol dehydrogenase	100
CCCCCC[C@H](C)O [(S)-2-octanol]	(R)-2-octanol dehydrogenase	6.7
C[C@@H](O)c1ccccc1 [(R)-1-phenylethanol]	(R)-2-octanol dehydrogenase	86.7
C[C@H](O)c1ccccc1 [(S)-1-phenylethanol]	(R)-2-octanol dehydrogenase	6.7

The recorded relative activity, oxidation reaction for CCCCCCC(C)O (centres unmarked) is 8.3

---

Test system: (R)-2-octanol dehydrogenase
Experiment: Residual (R)-2-octanol dehydrogenase activity after treatment with reagents
Format: biochemical, Pichia finlandica
Settings: treated at 30° C. for 30 minutes
Procedure: The (R)-2-octanol dehydrogenase was treated with various reagents at 30° C. for 30 minutes and the (R)-2-octanol dehydrogenase activity was measured.
Property label: effect of reagent on the enzyme (inhibition / stabilization), in words

Compound	Obs value
CCN1C(=O)C=CC1=O [N-ethylmaleimide]	stabilized
O=C([O-])CN(CCN(CC(=O)[O-])CC(=O)O)CC(=O)O.[Na+].[Na+] [EDTAÑ2Na, ethylenediaminetetraacetic acid 2Na]	slightly inhibited
c1cnc2c(c1)ccc1cccnc12 [o-Phenanthroline]	stabilized
[Cl][Hg][Cl] [HgCl2, mercury chloride]	slightly inhibited

---

Test system: (R)-2-octanol dehydrogenase
Assay: Oxidation activity of (R)-2-octanol dehydrogenase on various alcohols, NAD+ as coenzyme
Format: biochemical, Pichia finlandica
Conditions: oxidation activity of (R)-2-octanol taken as 100; NAD+ as coenzyme
Method: On the other hand, oxidation activity on (R)-2-octanol can be measured as follows. The activity can be validated by incubating at 30° C. the reaction mixture containing Tris-HCl buffer (pH 8.5, 50 mM), 2.5 mM NAD^+, 5 mM (R)-2-octanol, and the enzyme and by measuring increase of absorbance at 340 nm accompanying generation of NADH. […] The (R)-2-octanol dehydrogenase was reacted with various alcohols and its oxidation activity was measured.
Use yes when the recorded relative activity, oxidation reaction is no lower than 2; use no when it is lower.

Use these answered entries as a reference point.
Compound	Classification
CCOC(=O)C[C@@H](O)CCl [Ethyl (R)-4-chloro-3-hydroxybutyrate]	no
C[C@H](O)CCO [(S)-1,3-butanediol]	no

# bool: relative activity, oxidation reaction of C[C@@H](O)CCO [(R)-1,3-butanediol] >= 2
no

# bool: relative activity, oxidation reaction of C[C@@H](O)c1ccccc1 [(R)-1-phenylethanol] >= 2
yes

# bool: relative activity, oxidation reaction of "CC(C)O" >= 2
yes

# bool: relative activity, oxidation reaction of CCOC(=O)C[C@@H](C)O [Ethyl (R)-3-hydroxybutyrate] >= 2
yes

# bool: relative activity, oxidation reaction of C[C@H](O)c1ccccc1 [(S)-1-phenylethanol] >= 2
no

# bool: relative activity, oxidation reaction of "CCO" >= 2
no

# bool: relative activity, oxidation reaction of CCCCCC[C@@H](C)O [(R)-2-octanol] >= 2
yes

# bool: relative activity, oxidation reaction of CCOC(=O)C[C@H](O)CCl [Ethyl (S)-4-chloro-3-hydroxybutyrate] >= 2
yes

---

In this section, each of the molecules is paired with its reported relative activity, oxidation reaction.
tested on: (R)-2-octanol dehydrogenase; assay: Oxidation activity of (R)-2-octanol dehydrogenase on various alcohols, NAD+ as coenzyme; format: biochemical, Pichia finlandica; conditions: oxidation activity of (R)-2-octanol taken as 100; NAD+ as coenzyme
API doc: respond with a numeric literal and nothing else, no unit.

Molecule	Obs value
CCCCC(C)O (stereo not drawn)	54.1
OC1CCCCC1	0.172
OCC[C@@H](O)c1ccccc1 [(R)-1-phenyl-1,3-propanediol]	0.344

The recorded relative activity, oxidation reaction for CC(O)COc1ccccc1 (stereo not drawn) is 15.5

The recorded relative activity, oxidation reaction for CCOC(=O)C[C@H](C)O [Ethyl (S)-3-hydroxybutyrate] is 1.03

The recorded relative activity, oxidation reaction for CCCCCC[C@H](C)O [(S)-2-octanol] is 4.73

---

In this section, each of the compounds is paired with its reported relative activity, oxidation reaction.
tested on: (R)-2-octanol dehydrogenase; test: Oxidation activity of (R)-2-octanol dehydrogenase on various alcohols, NAD+ as coenzyme; type: biochemical, Pichia finlandica; conditions: oxidation activity of (R)-2-octanol taken as 100; NAD+ as coenzyme
API doc: respond with a numeric literal and nothing else, no unit.

# example entries with known answers
Compound	relative activity, oxidation reaction
CCCCCCC(C)O (stereo not drawn) [2-Octanol]	77.8
OCC[C@H](O)c1ccccc1 [(S)-1-phenyl-1,3-propanediol]	0.258

Moving on to the next compound.
Fill in: (R)-2-octanol dehydrogenase relative activity, oxidation reaction for CCCCCCCCO [1-Octanol] = 1.72
